- measurement.target: Gamma-aminobutyric acid receptor subunit alpha-5 (Homo sapiens) (UniProt P31644)
- Sequence (P31644 whole entry): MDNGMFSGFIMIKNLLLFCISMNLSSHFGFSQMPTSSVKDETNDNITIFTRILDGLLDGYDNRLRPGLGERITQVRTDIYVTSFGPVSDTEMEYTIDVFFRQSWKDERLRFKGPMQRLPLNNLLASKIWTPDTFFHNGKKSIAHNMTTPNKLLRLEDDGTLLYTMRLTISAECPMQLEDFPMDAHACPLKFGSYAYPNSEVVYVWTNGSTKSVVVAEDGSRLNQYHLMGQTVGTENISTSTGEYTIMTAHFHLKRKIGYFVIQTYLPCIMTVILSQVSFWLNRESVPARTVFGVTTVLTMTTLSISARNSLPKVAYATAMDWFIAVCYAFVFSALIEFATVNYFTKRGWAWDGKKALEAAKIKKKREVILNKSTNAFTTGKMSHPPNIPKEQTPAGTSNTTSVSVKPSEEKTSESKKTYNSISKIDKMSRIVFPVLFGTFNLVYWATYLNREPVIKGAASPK
- experimental.details: Maximum percent potentiation against gamma-aminobutyric acid (GABA) A receptor, alpha 5
- measurement.setup: Xenopus laevis
Think of 20% as a floor: if Activity stands on it or above, it is criterion met; beneath it, criterion not met.

Reference set, count: 6
INSERT INTO assay_data (input_smiles, measurement_target, assigned_class) VALUES
  ('Oc1nc2c(c3nc(-c4ccccc4F)cn13)CN(c1ncccn1)CC2', 'Gamma-aminobutyric acid receptor subunit alpha-5 (Homo sapiens) (UniProt P31644)', 'criterion not met'),
  ('Oc1nc2c(c3nc(-c4ccccc4F)cn13)CN(Cc1cccnc1)CC2', 'Gamma-aminobutyric acid receptor subunit alpha-5 (Homo sapiens) (UniProt P31644)', 'criterion not met'),
  ('Oc1nc2c(c3nc(-c4ccccc4F)cn13)CN(Cc1cccs1)CC2', 'Gamma-aminobutyric acid receptor subunit alpha-5 (Homo sapiens) (UniProt P31644)', 'criterion met'),
  ('CC(=O)N1CCc2nc(O)n3cc(-c4ccccc4F)nc3c2C1', 'Gamma-aminobutyric acid receptor subunit alpha-5 (Homo sapiens) (UniProt P31644)', 'criterion not met'),
  ('CCCCN1CCc2nc(O)n3cc(-c4ccccc4F)nc3c2C1', 'Gamma-aminobutyric acid receptor subunit alpha-5 (Homo sapiens) (UniProt P31644)', 'criterion not met'),
  ('Oc1nc2c(c3nc(-c4ccccc4F)cn13)CN(Cc1ccncc1)CC2', 'Gamma-aminobutyric acid receptor subunit alpha-5 (Homo sapiens) (UniProt P31644)', 'criterion not met');

Next molecule, please.
Tell me whether Activity is at least 20% here: Cc1ccc(-c2cn3c(O)nc4c(c3n2)CN(Cc2ccccc2)CC4)cc1
criterion not met

---

- measurement.target: Gamma-aminobutyric acid receptor subunit alpha-1 (Homo sapiens, UniProt P14867)
- Sequence (P14867 whole entry): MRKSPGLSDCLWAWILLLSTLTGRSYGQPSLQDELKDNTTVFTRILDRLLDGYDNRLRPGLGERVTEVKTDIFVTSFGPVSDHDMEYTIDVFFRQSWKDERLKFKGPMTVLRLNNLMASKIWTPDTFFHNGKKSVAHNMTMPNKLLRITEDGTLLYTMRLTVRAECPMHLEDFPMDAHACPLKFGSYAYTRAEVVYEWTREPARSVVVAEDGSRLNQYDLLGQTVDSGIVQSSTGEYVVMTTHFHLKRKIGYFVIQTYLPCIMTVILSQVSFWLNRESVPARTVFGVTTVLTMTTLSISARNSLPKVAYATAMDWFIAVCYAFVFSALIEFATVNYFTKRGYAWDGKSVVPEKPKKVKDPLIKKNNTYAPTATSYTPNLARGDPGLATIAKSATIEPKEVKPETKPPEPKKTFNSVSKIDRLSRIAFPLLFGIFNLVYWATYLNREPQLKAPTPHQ
- experimental.details: Effective concentration against gamma-aminobutyric acid (GABA) A receptor, alpha 1
# pEC50 annotations
Expect pEC50 as a plain number equal to -log10 of the molar concentration.

Illustrative cases are given below, each with its answer.
INSERT INTO measurements (input_smiles, measurement_target, value_reported) VALUES
  ('Cc1ccc(-c2cn3c(O)nc4c(c3n2)CN(Cc2ccccc2)CC4)cc1', 'Gamma-aminobutyric acid receptor subunit alpha-1 (Homo sapiens, UniProt P14867)', 6.58),
  ('Oc1nc2c(c3nc(-c4ccccc4F)cn13)CN(Cc1ccncc1)CC2', 'Gamma-aminobutyric acid receptor subunit alpha-1 (Homo sapiens, UniProt P14867)', 7.28),
  ('COc1cccc(-c2cn3c(=O)[nH]c4c(c3n2)CN(Cc2ccccc2)CC4)c1', 'Gamma-aminobutyric acid receptor subunit alpha-1 (Homo sapiens, UniProt P14867)', 7.09),
  ('O=c1[nH]c2c(c3nc(-c4ccccc4F)cn13)CN(Cc1cccnc1)CC2', 'Gamma-aminobutyric acid receptor subunit alpha-1 (Homo sapiens, UniProt P14867)', 7.25);

The reported pEC50 of the compound C=CCN1CCc2[nH]c(=O)n3cc(-c4ccccc4F)nc3c2C1 was 6.77

---

- measurement.target: Gamma-aminobutyric acid receptor subunit alpha-2 (Homo sapiens)
- Sequence (P47869 whole entry): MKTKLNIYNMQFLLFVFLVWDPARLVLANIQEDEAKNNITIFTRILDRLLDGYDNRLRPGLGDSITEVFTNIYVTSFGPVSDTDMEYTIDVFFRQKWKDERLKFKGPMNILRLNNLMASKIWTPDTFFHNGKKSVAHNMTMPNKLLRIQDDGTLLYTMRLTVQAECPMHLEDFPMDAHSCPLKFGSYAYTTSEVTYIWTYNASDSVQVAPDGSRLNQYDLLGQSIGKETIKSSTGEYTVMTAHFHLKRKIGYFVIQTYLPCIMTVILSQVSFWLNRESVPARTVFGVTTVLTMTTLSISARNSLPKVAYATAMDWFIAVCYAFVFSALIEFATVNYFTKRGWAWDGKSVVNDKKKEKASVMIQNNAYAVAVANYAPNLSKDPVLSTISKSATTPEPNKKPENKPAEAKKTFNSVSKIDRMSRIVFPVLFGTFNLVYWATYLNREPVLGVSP
- experimental.details: Effective concentration against gamma-aminobutyric acid (GABA) A receptor, alpha 2
assay.endpoint: log10 EC50 (log10 of the value in nM)
Form field - Quantity: EC50; Unit: nM; Scale: log10

Illustrative cases are given below, each with its answer.
INSERT INTO assay_data (input_smiles, measurement_target, assay_endpoint, value_reported) VALUES
  ('CCCCN1CCc2nc(O)n3cc(-c4ccccc4F)nc3c2C1', 'Gamma-aminobutyric acid receptor subunit alpha-2 (Homo sapiens)', 'log10 EC50', 2.39),
  ('O=c1[nH]c2c(c3nc(-c4ccccc4F)cn13)CN(Cc1cnc[nH]1)CC2', 'Gamma-aminobutyric acid receptor subunit alpha-2 (Homo sapiens)', 'log10 EC50', 2.66);

The reported log10 EC50 of the molecule Cc1ccc(-c2cn3c(O)nc4c(c3n2)CN(Cc2ccccc2)CC4)cc1 was 3.07

The reported log10 EC50 of the molecule O=c1[nH]c2c(c3nc(-c4ccc(F)cc4F)cn13)CN(Cc1ccccc1)CC2 was 2.32

The reported log10 EC50 of the molecule O=c1[nH]c2c(c3nc(-c4cccc(F)c4)cn13)CN(Cc1ccccc1)CC2 was 2.19

The reported log10 EC50 of the molecule C=CCN1CCc2[nH]c(=O)n3cc(-c4ccccc4F)nc3c2C1 was 2.45

The reported log10 EC50 of the molecule O=c1[nH]c2c(c3nc(-c4ccccc4F)cn13)CN(Cc1cccnc1)CC2 was 2.00
